Consider the following molecules; for each one, report its half-life.
Protocol: Half life in rat at 0.5 mg/kg, iv and 1 mg/kg, po
Assay type: ADME, organism-based
Condition description: in vivo
Give just the number in min; leave the unit off.

Record Cc1ccc2c(N3CCN(CCc4cccc5c4ccc(=O)n5C)[C@@H](C)C3)cccc2n1 , field half-life: 36

Record Cc1ccc2c(N3CCN(CCc4cccc5c4ccc(=O)n5C)C(C)(C)C3)cccc2n1 , field half-life: 36

Record Cc1ccc2c(N3CCN(CCc4c(C)ccc5c4ccc(=O)n5C)[C@@H](C)C3)cccc2n1 , field half-life: 72

Record Cc1ccc2c(N3CCN(CCc4c(C)ccc5c4ccc(=O)n5C)CC3)cc(F)cc2n1 , field half-life: 42

Record Cc1ccc2c(N3CCN(CCc4cccc5c4ccc(=O)n5C)[C@@H](C)C3)cc(F)cc2n1 , field half-life: 96

Record Cc1ccc2c(N3CCN(CCc4c(C)ccc5c4ccc(=O)n5C)CC3)cccc2n1 , field half-life: 66

----------
Test system: Liver microsomes
Protocol: Intrinsic clearance in human liver microsomes
Format: ADME, Microsome
Outcome measure: CL (mL/min/g)
Give just the number in mL/min/g; leave the unit off.

Record Cc1ccc2c(N3CCN(CCc4cccc5c4ccc(=O)n5C)C(C)(C)C3)cccc2n1 , field CL: 3.8

Record Cc1ccc2c(N3CCN(CCc4cccc5c4ccc(=O)n5C)[C@@H](C)C3)cc(F)cc2n1 , field CL: 0.8

Record Cc1ccc2c(N3CCN(CCc4cccc5c4OCC(=O)N5C)CC3)cccc2n1 , field CL: 2.4

----------
Protocol: Volume of distribution at steady state in rat at 0.5 mg/kg, iv and 1 mg/kg, po
Type: ADME, organism-based
Condition description: in vivo, read-out: Vdss
hey, just use True if measured Vd is less than 2 L/kg, otherwise False

**Q:** In the record for Cc1ccc2c(N3CCN(CCc4cccc5c4ccc(=O)n5C)C(C)(C)C3)cccc2n1 , is Vd less than 2 L/kg?
**A:** True

**Q:** In the record for Cc1ccc2c(N3CCN(CCc4c(C)ccc5c4ccc(=O)n5C)CC3)cc(F)cc2n1 , is Vd less than 2 L/kg?
**A:** False

**Q:** In the record for Cc1ccc2c(N3CCN(CCc4c(C)ccc5c4ccc(=O)n5C)[C@H](C)C3)cccc2n1 , is Vd less than 2 L/kg?
**A:** False

**Q:** In the record for Cc1ccc2c(C3CCN(CCc4c(C)ccc5c4ccc(=O)n5C)CC3)cccc2n1 , is Vd less than 2 L/kg?
**A:** False

**Q:** In the record for Cc1ccc2c(N3CCN(CCc4cccc5c4ccc(=O)n5C)CC3)cccc2n1 , is Vd less than 2 L/kg?
**A:** False

**Q:** In the record for Cc1ccc2c(N3CCN(CCc4c(C)ccc5c4ccc(=O)n5C)[C@@H](C)C3)cccc2n1 , is Vd less than 2 L/kg?
**A:** False

**Q:** In the record for Cc1ccc2c(N3CCN(CCc4cccc5c4ccc(=O)n5C)[C@@H](C)C3)cccc2n1 , is Vd less than 2 L/kg?
**A:** True

**Q:** In the record for Cc1ccc2c(N3CCN(CCc4c(C)ccc5c4ccc(=O)n5C)CC3)cccc2n1 , is Vd less than 2 L/kg?
**A:** False

**Q:** In the record for Cc1ccc2c(N3CCN(CCc4c(C)ccc5c4CCC(=O)N5)CC3)cccc2n1 , is Vd less than 2 L/kg?
**A:** False
